Measured pIC50, listed per entry.
System: MCF7
assay details: Cytotoxicity against human MCF7 cells after 72 hrs by MTT assay
Type: functional, cell-based
condition: Homo sapiens, MCF7, 72 h; read-out: IC50
pIC50 is a log-scale quantity: -log10 of the concentration expressed in molar.

| molecule | pIC50 |
| --- | --- |
| CN1CCN(C2CCN(C(=O)Nc3cc(Oc4ccc(NC(=O)C5(C(=O)Nc6ccc(F)cc6)CC5)c(F)c4)ccn3)CC2)CC1 [GOLVATINIB] | 4.81 |
| O=C(Nc1ccc(Oc2ncnc3[nH]ccc23)c(F)c1)c1cc2cccnc2n(-c2ccc(F)cc2)c1=O | 5.03 |
| O=C(Nc1ccc(Oc2ncnc3[nH]ccc23)c(F)c1)c1cc2cccnc2n(-c2ccc(Br)cc2)c1=O | 4.57 |
| O=C(Nc1ccc(Oc2ncnc3[nH]ccc23)c(F)c1)c1cc2cccnc2n(-c2ccc(Cl)cc2)c1=O | 4.35 |
| Cn1ccc2c(Oc3ccc(NC(=O)c4cc5cccnc5n(-c5ccccc5)c4=O)cc3)ncnc21 | 4.05 |
| O=C(Nc1ccc(Oc2ncnc3[nH]ccc23)c(F)c1)c1cc2cccnc2n(-c2ccccc2)c1=O | 4.35 |
| Cn1ccc2c(Oc3ccc(NC(=O)c4cc5cccnc5n(-c5ccc(Cl)cc5)c4=O)cc3F)ncnc21 | 4.13 |
| Cn1ccc2c(Oc3ccc(NC(=O)c4cc5cccnc5n(-c5ccc(Br)cc5)c4=O)cc3)ncnc21 | 4.10 |
| Cn1ccc2c(Oc3ccc(NC(=O)c4cc5cccnc5n(-c5ccc(Br)cc5)c4=O)cc3F)ncnc21 | 4.23 |
| Cn1ccc2c(Oc3ccc(NC(=O)c4cc5cccnc5n(-c5ccccc5)c4=O)cc3F)ncnc21 | 4.13 |

What does the data say about its pIC50? Entry: Cn1ccc2c(Oc3ccc(NC(=O)c4cc5cccnc5n(-c5ccc(Cl)cc5)c4=O)cc3)ncnc21
4.02

* * *

Measured log10 of IC50, listed per entry.
Tested on: A549
assay details: Cytotoxicity against human A549 cells after 72 hrs by MTT assay
Type: functional, cell-based
condition: Homo sapiens, A549, 72 h; read-out: IC50
Heads up, the numbers here are log10 of IC50 in µM units.

Here is how some molecules turned out for log10 of IC50.
| molecule | measured attribute | readout number |
| --- | --- | --- |
| Cn1ccc2c(Oc3ccc(NC(=O)c4cc5cccnc5n(-c5ccc(Br)cc5)c4=O)cc3F)ncnc21 | log10 of IC50 | 1.63 |
| Cn1ccc2c(Oc3ccc(NC(=O)c4cc5cccnc5n(-c5ccc(C(F)(F)F)c(Cl)c5)c4=O)cc3F)ncnc21 | log10 of IC50 | 2.51 |
| Cn1ccc2c(Oc3ccc(NC(=O)c4cc5cccnc5n(-c5ccc(Cl)cc5)c4=O)cc3)ncnc21 | log10 of IC50 | 1.88 |
| O=C(Nc1ccc(Oc2ncnc3[nH]ccc23)c(F)c1)c1cc2cccnc2n(-c2ccc(F)cc2)c1=O | log10 of IC50 | 0.72 |

Now for a further molecule.
What does the data say about its log10 of IC50? Entry: O=C(Nc1ccc(Oc2ncnc3[nH]ccc23)c(F)c1)c1cc2cccnc2n(-c2ccc(C(F)(F)F)cc2Cl)c1=O
2.45

* * *

System: A549
assay details: Cytotoxicity against human A549 cells after 72 hrs by MTT assay
Type: functional, cell-based
condition: Homo sapiens, A549, 72 h; read-out: IC50
pIC50: −log10 of the molar value.
Label condition met when pIC50 >= 4; otherwise condition not met.

# example entries with known answers
| substance smiles | assigned class |
| --- | --- |
| Cn1ccc2c(Oc3ccc(NC(=O)c4cc5cccnc5n(-c5ccc(C(F)(F)F)cc5Cl)c4=O)cc3)ncnc21 | condition not met |
| Cn1ccc2c(Oc3ccc(NC(=O)c4cc5cccnc5n(-c5ccc(Cl)cc5)c4=O)cc3F)ncnc21 | condition met |
| O=C(Nc1ccc(Oc2ncnc3[nH]ccc23)c(F)c1)c1cc2cccnc2n(-c2ccc(Br)cc2F)c1=O | condition not met |
| O=C(Nc1ccc(Oc2ncnc3[nH]ccc23)c(F)c1)c1cc2cccnc2n(-c2ccccc2)c1=O | condition met |
| O=C(Nc1ccc(Oc2ncnc3[nH]ccc23)c(F)c1)c1cc2cccnc2n(-c2ccc(Cl)cc2)c1=O | condition met |

Reported pIC50 reaches at least 4 for CN1CCN(C2CCN(C(=O)Nc3cc(Oc4ccc(NC(=O)C5(C(=O)Nc6ccc(F)cc6)CC5)c(F)c4)ccn3)CC2)CC1 ?
condition met

Reported pIC50 reaches at least 4 for Cn1ccc2c(Oc3ccc(NC(=O)c4cc5cccnc5n(-c5ccc(Br)cc5)c4=O)cc3)ncnc21 ?
condition met

* * *

Measured log10 IC50, listed per entry.
System: A549
assay details: Cytotoxicity against human A549 cells after 72 hrs by MTT assay
Format: functional, cell-based
condition: Homo sapiens, A549, 72 h; read-out: IC50
Heads up, the numbers here are log10 of IC50 in µM units.

| substance smiles | log10 IC50 |
| --- | --- |
| COc1ccc(-n2c(=O)c(C(=O)Nc3ccc(Oc4ncnc5c4ccn5C)cc3)cc3cccnc32)cc1 | 1.92 |
| Cn1ccc2c(Oc3ccc(NC(=O)c4cc5cccnc5n(-c5ccccc5)c4=O)cc3F)ncnc21 | 1.80 |
| Cn1ccc2c(Oc3ccc(NC(=O)c4cc5cccnc5n(-c5ccccc5)c4=O)cc3)ncnc21 | 1.82 |
| O=C(Nc1ccc(Oc2ncnc3[nH]ccc23)c(F)c1)c1cc2cccnc2n(-c2ccc(Br)cc2)c1=O | 1.44 |

What does the data say about its log10 IC50? Entry: Cn1ccc2c(Oc3ccc(NC(=O)c4cc5cccnc5n(-c5ccc(F)cc5)c4=O)cc3F)ncnc21
0.86
